Values were extracted from paper PMC11025159.

ASSAY METHOD TEXT: Body weight, biochemical and haematological parameters in DHT-induced AGA mice (0.5% testosterone then topical treatment)
Format: in vivo, C57BL/6J mice
EXPERIMENTAL SETUP: Day 21; 0.02 mg/Kg; unit assumed
PARAMETER: LYMPH (%)
Answer in %, number only, no unit symbol.

IN: Item CCS(=O)(=O)N1CC(CC#N)(n2cc(-c3ncnc4[nH]ccc34)cn2)C1 [Baricitinib, baricitinib, reference compound] : provide LYMPH
OUT: 67.4

###

ASSAY METHOD TEXT: Body weight, biochemical and haematological parameters in DHT-induced AGA mice (0.5% testosterone then topical treatment)
Format: in vivo, C57BL/6J mice
EXPERIMENTAL SETUP: Day 21; 0.08 mg/Kg
PARAMETER: HGB
Quote the value and follow it with the unit of measurement.

IN: Give HGB for the following molecule: Fc1ccc(-c2cnc3[nH]cc(-c4ccnc(NC5CC5)n4)c3c2)cc1 [MJ04]
OUT: 10 g/dL

###

EXPERIMENTAL TARGET: GSK-3-β (Homo sapiens, UniProt P49841)
Sequence (P49841 whole entry): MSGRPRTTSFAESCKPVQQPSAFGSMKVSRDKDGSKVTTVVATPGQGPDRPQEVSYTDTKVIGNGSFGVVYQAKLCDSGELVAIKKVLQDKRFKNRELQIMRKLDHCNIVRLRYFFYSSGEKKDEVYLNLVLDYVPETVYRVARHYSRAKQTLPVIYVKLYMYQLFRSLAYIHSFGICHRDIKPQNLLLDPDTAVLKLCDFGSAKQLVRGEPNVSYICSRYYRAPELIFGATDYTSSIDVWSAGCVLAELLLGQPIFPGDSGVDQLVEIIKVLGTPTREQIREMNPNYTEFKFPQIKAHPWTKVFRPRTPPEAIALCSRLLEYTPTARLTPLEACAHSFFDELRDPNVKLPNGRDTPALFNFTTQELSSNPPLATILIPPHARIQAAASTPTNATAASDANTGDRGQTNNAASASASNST
PARAMETER: IC50 (µM)
Your answer should be a plain number; it is taken to be in µM.

IN: Hello, please tell me recorded IC50 for this one: Fc1ccc(-c2cnc3[nH]cc(-c4ccnc(NC5CC5)n4)c3c2)cc1 [MJ04]
OUT: 1.84

###

EXPERIMENTAL TARGET: PI-3-K δ (Homo sapiens, UniProt O00329)
Sequence (O00329 whole entry): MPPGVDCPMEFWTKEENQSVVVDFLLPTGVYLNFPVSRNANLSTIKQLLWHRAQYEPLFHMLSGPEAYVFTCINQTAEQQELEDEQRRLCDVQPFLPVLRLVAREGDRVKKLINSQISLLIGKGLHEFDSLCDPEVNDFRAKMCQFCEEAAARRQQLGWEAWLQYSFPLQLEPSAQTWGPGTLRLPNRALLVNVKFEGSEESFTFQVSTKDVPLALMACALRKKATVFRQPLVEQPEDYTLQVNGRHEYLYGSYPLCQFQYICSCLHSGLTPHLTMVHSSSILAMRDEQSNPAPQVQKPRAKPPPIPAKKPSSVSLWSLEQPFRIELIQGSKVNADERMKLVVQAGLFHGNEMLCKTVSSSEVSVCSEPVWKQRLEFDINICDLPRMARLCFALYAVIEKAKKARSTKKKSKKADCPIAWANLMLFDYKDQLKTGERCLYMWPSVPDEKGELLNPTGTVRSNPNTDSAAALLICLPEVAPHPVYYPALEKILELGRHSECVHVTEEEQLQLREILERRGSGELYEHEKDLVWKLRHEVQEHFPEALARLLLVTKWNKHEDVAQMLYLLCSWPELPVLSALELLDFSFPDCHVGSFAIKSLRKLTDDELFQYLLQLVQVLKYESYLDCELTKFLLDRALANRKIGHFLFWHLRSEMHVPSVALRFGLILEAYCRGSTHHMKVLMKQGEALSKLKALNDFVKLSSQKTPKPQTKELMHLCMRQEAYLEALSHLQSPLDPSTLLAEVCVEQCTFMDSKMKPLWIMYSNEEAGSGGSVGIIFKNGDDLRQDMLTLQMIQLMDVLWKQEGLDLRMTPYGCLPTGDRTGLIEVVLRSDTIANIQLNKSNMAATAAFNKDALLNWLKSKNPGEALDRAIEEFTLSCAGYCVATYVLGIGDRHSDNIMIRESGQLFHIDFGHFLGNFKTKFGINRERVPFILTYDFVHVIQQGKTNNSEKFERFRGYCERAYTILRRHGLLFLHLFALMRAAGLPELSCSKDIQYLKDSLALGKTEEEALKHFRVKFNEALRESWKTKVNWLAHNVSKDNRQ
Sequence (P27986 whole entry partner): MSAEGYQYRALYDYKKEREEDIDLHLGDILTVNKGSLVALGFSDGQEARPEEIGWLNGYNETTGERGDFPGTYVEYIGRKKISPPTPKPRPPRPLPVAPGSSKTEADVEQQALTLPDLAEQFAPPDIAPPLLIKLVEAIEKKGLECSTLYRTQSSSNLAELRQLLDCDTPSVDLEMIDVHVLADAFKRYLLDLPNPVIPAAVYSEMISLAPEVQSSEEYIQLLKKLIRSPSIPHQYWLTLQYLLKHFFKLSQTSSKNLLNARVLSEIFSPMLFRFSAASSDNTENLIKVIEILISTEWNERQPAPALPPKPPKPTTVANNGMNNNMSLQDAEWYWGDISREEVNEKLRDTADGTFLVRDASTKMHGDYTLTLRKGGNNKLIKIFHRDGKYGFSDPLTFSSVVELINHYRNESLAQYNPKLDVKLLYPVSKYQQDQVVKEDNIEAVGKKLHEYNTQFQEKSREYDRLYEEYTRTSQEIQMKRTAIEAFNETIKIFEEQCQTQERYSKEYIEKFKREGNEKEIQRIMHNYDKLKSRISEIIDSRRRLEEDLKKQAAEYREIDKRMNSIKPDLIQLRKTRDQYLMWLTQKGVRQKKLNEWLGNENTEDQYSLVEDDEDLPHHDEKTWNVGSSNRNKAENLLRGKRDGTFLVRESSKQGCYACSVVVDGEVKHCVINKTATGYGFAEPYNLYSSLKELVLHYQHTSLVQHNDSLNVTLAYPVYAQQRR
PARAMETER: IC50

IN: Quote PI-3-K δ (Homo sapiens, UniProt O00329) IC50 for entry Fc1ccc(-c2cnc3[nH]cc(-c4ccnc(NC5CC5)n4)c3c2)cc1 .
OUT: > 10 µM

###

EXPERIMENTAL TARGET: PI-3-K α (Homo sapiens, UniProt P42336)
Sequence (P42336 whole entry): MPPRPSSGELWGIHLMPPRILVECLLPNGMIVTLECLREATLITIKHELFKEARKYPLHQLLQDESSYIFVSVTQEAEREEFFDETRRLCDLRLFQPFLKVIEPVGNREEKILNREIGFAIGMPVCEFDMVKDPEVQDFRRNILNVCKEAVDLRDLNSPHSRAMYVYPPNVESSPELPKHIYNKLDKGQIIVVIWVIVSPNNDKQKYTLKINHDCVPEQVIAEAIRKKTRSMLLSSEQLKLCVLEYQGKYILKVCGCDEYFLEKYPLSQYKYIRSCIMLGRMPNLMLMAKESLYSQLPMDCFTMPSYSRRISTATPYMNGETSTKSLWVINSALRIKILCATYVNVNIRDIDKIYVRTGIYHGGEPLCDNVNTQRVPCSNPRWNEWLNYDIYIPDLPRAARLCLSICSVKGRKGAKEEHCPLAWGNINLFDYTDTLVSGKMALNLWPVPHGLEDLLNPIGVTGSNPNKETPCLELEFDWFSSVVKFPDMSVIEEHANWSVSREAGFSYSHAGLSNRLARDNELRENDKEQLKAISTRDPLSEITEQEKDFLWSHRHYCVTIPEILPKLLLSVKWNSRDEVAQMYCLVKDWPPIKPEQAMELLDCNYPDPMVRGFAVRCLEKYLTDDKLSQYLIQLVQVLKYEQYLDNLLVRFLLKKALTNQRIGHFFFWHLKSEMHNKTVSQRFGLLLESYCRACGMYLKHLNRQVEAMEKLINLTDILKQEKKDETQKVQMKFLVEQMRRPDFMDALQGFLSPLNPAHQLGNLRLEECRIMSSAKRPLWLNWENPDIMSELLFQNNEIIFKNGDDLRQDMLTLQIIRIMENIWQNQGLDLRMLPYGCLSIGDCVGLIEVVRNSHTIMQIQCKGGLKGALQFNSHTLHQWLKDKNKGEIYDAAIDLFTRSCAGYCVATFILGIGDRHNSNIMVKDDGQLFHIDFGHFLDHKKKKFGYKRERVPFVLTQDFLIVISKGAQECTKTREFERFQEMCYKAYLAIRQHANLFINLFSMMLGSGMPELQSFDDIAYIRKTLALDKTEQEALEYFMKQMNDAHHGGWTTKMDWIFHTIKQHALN
Sequence (P27986 whole entry partner): as the sequence (P27986 whole entry partner) above
PARAMETER: IC50

IN: Give recorded IC50. Fc1ccc(-c2cnc3[nH]cc(-c4ccnc(NC5CC5)n4)c3c2)cc1 [MJ04]
OUT: > 10 µM

###

EXPERIMENTAL TARGET: IGF-1R (Homo sapiens)
PARAMETER: IC50 (nM)
Report only the number, with the unit nM understood.

IN: Under IGF-1R (Homo sapiens), report IC50 for Fc1ccc(-c2cnc3[nH]cc(-c4ccnc(NC5CC5)n4)c3c2)cc1
OUT: 967

###

# LYMPH annotations
ASSAY METHOD TEXT: Body weight, biochemical and haematological parameters in DHT-induced AGA mice (0.5% testosterone then topical treatment)
Type: in vivo, C57BL/6J mice
EXPERIMENTAL SETUP: Day 21; 0.04 mg/Kg; unit assumed
Procedure: The experiments were performed on C57BL/6 J and Athymic nude mice (NU/J Foxn1^nu) of 6–7 weeks of age obtained from Animal House Facility, CSIR-Indian Institute of Integrative Medicine (IIIM), Jammu, India. […] The animals were provided with ad libitum feed (standard pellet diet) and autoclaved RO water throughout the study. The body weight of mice was measured after seven days before treatment. C57BL/6 J mice (male) were obtained from CSIR-IIIM Animal House at 7 weeks of age. […]
Give the value in % but do not write % after it.

IN: Retrieve LYMPH measured for CCS(=O)(=O)N1CC(CC#N)(n2cc(-c3ncnc4[nH]ccc34)cn2)C1 [Baricitinib, baricitinib, reference compound] and print it.
OUT: 67.4

IN: Answer with reported LYMPH of Fc1ccc(-c2cnc3[nH]cc(-c4ccnc(NC5CC5)n4)c3c2)cc1
OUT: 60.3

###

EXPERIMENTAL TARGET: JAK3 (Homo sapiens, UniProt P52333)
Construct: purchased Promega Corporation V3701
Sequence (P52333 1-1124): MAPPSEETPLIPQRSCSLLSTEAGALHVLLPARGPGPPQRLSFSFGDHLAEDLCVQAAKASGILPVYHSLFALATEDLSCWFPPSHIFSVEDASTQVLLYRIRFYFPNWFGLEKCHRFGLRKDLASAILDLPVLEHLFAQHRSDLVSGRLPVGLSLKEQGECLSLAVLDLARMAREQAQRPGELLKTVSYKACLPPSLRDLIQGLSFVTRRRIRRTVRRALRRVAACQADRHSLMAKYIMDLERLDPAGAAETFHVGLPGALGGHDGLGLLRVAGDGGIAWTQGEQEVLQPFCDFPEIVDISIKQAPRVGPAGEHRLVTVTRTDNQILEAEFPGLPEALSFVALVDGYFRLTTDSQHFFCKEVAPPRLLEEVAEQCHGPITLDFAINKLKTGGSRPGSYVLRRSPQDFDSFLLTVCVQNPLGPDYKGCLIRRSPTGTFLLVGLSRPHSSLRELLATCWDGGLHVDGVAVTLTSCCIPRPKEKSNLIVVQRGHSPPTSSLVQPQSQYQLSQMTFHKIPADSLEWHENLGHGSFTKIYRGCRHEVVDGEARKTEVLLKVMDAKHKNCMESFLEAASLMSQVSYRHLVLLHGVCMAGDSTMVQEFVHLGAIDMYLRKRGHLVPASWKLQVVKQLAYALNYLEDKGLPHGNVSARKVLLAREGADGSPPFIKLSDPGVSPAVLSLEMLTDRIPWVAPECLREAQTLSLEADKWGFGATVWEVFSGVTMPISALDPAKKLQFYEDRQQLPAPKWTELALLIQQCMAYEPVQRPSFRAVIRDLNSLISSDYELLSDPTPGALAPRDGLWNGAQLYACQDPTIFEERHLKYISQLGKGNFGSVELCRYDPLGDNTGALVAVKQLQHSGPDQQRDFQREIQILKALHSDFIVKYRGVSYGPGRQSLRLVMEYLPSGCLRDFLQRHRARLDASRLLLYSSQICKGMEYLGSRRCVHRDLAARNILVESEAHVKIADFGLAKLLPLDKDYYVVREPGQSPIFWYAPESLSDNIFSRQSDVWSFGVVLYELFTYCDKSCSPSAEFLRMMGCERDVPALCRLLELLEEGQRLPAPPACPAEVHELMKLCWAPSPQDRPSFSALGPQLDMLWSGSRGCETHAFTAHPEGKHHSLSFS
ASSAY METHOD TEXT: Cell-free kinase assay JAK3
Type: biochemical
EXPERIMENTAL SETUP: structure-activity statement
PARAMETER: inhibitory activity against JAK3 in kinase assays and in MTT assays

IN: Find the measured inhibitory activity against JAK3 in kinase assays and in MTT assays of Nc1nccc(-c2c[nH]c3ncc(-c4cccc(C(F)(F)F)c4)cc23)n1 [MJ08] and report it.
OUT: less active

IN: Tell me measured inhibitory activity against JAK3 in kinase assays and in MTT assays for Nc1nccc(-c2c[nH]c3ncc(-c4cccc(F)c4)cc23)n1 [MJ07] please.
OUT: less active

###

ASSAY METHOD TEXT: Body weight, biochemical and haematological parameters in DHT-induced AGA mice (0.5% testosterone then topical treatment)
Assay type: in vivo, C57BL/6J mice
EXPERIMENTAL SETUP: Day 21; 0.1mg/Kg; unit assumed
PARAMETER: LYMPH (%)
Write the answer as a number in %, unit excluded.

IN: Please report LYMPH for the following compound: CCS(=O)(=O)N1CC(CC#N)(n2cc(-c3ncnc4[nH]ccc34)cn2)C1 [Baricitinib, baricitinib, reference compound]
OUT: 71.3

###

EXPERIMENTAL TARGET: JAK2 (Homo sapiens)
Construct: purchased BPS Bioscience 79,520
Sequence (O60674 whole entry): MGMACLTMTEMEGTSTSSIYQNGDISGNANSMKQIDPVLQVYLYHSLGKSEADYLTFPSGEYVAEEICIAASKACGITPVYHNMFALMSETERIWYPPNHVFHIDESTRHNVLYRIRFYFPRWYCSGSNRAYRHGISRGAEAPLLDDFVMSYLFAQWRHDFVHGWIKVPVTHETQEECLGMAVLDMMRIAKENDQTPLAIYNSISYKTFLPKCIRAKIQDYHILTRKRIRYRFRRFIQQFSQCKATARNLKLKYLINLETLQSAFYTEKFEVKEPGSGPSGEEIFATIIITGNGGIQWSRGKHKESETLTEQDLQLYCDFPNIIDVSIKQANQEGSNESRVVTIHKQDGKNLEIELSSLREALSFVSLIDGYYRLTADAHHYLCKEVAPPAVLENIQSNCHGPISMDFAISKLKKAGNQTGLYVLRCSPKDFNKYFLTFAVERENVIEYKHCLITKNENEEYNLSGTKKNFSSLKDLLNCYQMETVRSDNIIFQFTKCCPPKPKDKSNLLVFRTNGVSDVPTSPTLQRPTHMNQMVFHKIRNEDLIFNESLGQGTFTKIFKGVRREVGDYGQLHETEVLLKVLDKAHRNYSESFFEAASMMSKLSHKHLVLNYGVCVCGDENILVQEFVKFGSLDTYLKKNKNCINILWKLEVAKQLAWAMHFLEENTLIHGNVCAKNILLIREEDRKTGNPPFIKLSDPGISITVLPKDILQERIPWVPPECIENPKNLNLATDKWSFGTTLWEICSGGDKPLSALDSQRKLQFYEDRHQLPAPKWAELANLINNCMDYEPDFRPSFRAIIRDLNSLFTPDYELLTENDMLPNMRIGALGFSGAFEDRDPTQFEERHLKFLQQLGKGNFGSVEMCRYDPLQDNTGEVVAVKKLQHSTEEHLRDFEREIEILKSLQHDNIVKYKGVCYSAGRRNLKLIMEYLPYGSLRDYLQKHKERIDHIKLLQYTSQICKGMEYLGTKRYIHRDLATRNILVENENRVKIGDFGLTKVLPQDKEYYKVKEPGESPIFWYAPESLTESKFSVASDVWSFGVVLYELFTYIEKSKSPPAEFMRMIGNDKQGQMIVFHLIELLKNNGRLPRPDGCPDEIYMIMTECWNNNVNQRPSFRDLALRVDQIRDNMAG
ASSAY METHOD TEXT: Cell-free kinase assay JAK2
Format: biochemical
EXPERIMENTAL SETUP: Km ATP; read-out: IC50 JAK 2
PARAMETER: pIC50
The read-out pIC50 is expressed as -log10 of concentration in moles per litre.

IN: Check the records and state pIC50 for Fc1ccc(-c2cnc3[nH]cc(-c4ccnc(NC5CC5)n4)c3c2)cc1
OUT: 6.59

###

// values below are reported IC50
Tested on: HCT-116
ASSAY METHOD TEXT: MTT cell viability assay HCT-116
Type: cell-based, human
EXPERIMENTAL SETUP: 48 h
Number in µM, nothing else.

IN: Specify IC50 for Fc1ccc(-c2cnc3[nH]cc(-c4ccnc(NCCN5CCOCC5)n4)c3c2)cc1 and stop.
OUT: 5.36

IN: Give the measured IC50 for CSc1ccc(-c2cnc3[nH]cc(-c4ccnc(NC5CC5)n4)c3c2)cc1
OUT: 3.12

IN: For Clc1ccc(-c2cnc3[nH]cc(-c4ccnc(NC5CC5)n4)c3c2)cc1 , write its IC50.
OUT: 8.72

Continuing:
IN: Respond only with IC50 recorded for c1cncc(-c2cnc3[nH]cc(-c4ccnc(NCCN5CCOCC5)n4)c3c2)c1
OUT: 3.22

IN: Note IC50 for the compound shown: Nc1nccc(-c2c[nH]c3ncc(-c4cccc(C(F)(F)F)c4)cc23)n1
OUT: 1.18

###

EXPERIMENTAL TARGET: UniProtKB P42338
PARAMETER: IC50

IN: Enter IC50 (test system UniProtKB P42338) for Fc1ccc(-c2cnc3[nH]cc(-c4ccnc(NC5CC5)n4)c3c2)cc1
OUT: > 10 µM
